Experimental Details: Vero cell viability after 2 h exposure to lipoperoxidators (CellTiter-Glo)
Condition Label: African green monkey, Vero cells, CC50, Vero, no antioxidant, 2 h at 37°C
Parameter Measured: CC50 at 2 h (mM)
Express it in mM; write the number only.

So what's the measured CC50 at 2 h for this one? CC(C)(N=NC(C)(C)C(=N)N)C(=N)N.Cl.Cl [AAPH] 69

###

Test system: HSV-1
Experimental Details: HSV-1 virion infectivity (plaquing efficiency) on HFF cells after virion pretreatment
Condition Label: Human alphaherpesvirus 1, HFF, virions preloaded with vitamin E (10 μM, BSA carrier)
Consider the following compounds; for each one, report its pEC50.
Note on units: pEC50 is unitless, being -log10 of a concentration expressed in mol/L.

So what's the measured pEC50 for this one? CC(C)CC(C)(C#N)N=NC(C)(C#N)CC(C)C (centres unmarked) [AMVN, 2,2′-azobis(2,4-dimethylvaleronitrile)] 2.57

So what's the measured pEC50 for this one? CC(C)(N=NC(C)(C)C(=N)N)C(=N)N.Cl.Cl [AAPH] 1.50
